The following compounds have recorded GI50 on MDA-MB-435.

// below: answered compounds
{"columns": ["Smiles representation", "Assay value"],
 "data": [
  ["Cc1cc2cc(Oc3ccnc(Nc4cccc(CS(=O)(=O)NCCN(C)C)c4)n3)ccc2[nH]1", "5.37 µM"],
  ["O=c1c2ccccc2c(C=NCCNCCO)c2oc3ccccc3n12", "12.3 µM"],
  ["CC(=O)c1ccc(NCn2nc(-c3ccccc3O)oc2=S)cc1", "> 100 µM"]
]}

Now for a further compound.
Inquiry: Hello, I am looking for reported GI50 with MDA-MB-435 for `c1ccc(CN2CCC3(CC2)ONC2=NCCN23)cc1` . Could you help?
Reply text: 91.5 µM

----------
Examples of compounds with documented TGI follow.
# System: KM20L2 colon
# Test description: NCI tumour cell line growth inhibition, 48 h

// below: answered compounds
{"columns": ["Compound", "Assay value"],
 "data": [
  ["O=c1c2cc(-c3ccccc3)sc2nc2sc(-c3ccccc3)nn12", "> 100 µM"],
  ["CCCCCCCCCCSS(=O)(=O)c1ccc(C)cc1", "33.3 µM"]
]}

Inquiry: Would you mind telling me what TGI value was observed for C/C(=N\O)C(CN(C)C)C(c1ccccc1)c1c(O)c2ccccc2oc1=O (configuration not stated) ?
Reply text: > 100 µM

Inquiry: Would you mind telling me what TGI value was observed for `O=C(O/N=C1/CCC/C1=C\c1ccccc1)c1ccc(Cl)cc1` ?
Reply text: > 100 µM

Inquiry: Would you mind telling me what TGI value was observed for `COc1ccc2c(CCNS(=O)(=O)c3ccccc3)c(C(C)=O)[nH]c2c1[N+](=O)[O-]` ?
Reply text: > 100 µM

Inquiry: Would you mind telling me what TGI value was observed for `COC(=O)c1cc(Cl)ccc1NC(=O)C1CCCCC1` ?
Reply text: > 100 µM

Inquiry: Would you mind telling me what TGI value was observed for Nc1nc(SCCC/C=C/B(O)O)nc2c1ncn2C1OC(CO)C(O)C1O (configuration not stated) ?
Reply text: > 243 µM

Inquiry: Would you mind telling me what TGI value was observed for CC(=O)[CH-]C(=O)c1ccccc1.CC(=O)[CH-]C(=O)c1ccccc1.CC(C)CCCC(C)[C@H]1CCC2[C@@H]3CCC4C[C@@H]([O-])CC[C@]4(C)C3CC[C@@]21C.CC(C)CCCC(C)[C@H]1CCC2[C@@H]3CCC4C[C@@H]([O-])CC[C@]4(C)C3CC[C@@]21C.Cl.[Ti+4] (some centres not stated) ?
Reply text: > 25 µM

Inquiry: Would you mind telling me what TGI value was observed for O=C(O)c1cc2c3c(c1)[C@H]1C=CC[C@H]1CN3CC1CC=CC21 (some centres not stated) ?
Reply text: > 100 µM

----------
# Tested on: NCI-H226 lung
# Test description: NCI tumour cell line growth inhibition, 48 h
Observation type: TGI

// below: answered molecules
{"columns": ["Molecule", "Observation type", "Assay value"],
 "data": [
  ["Cc1c(Cl)c(S(N)(=O)=O)cc(S(N)(=O)=O)c1NC(=O)c1ccc(Cl)cc1", "TGI", "> 100 µM"],
  ["O=C(CN1C(=O)c2ccccc2C1=O)OC1C=CCCC1 (stereo not given)", "TGI", "> 100 µM"],
  ["Nc1nonc1-c1noc(-c2nonc2N)[n+]1[O-]", "TGI", "> 100 µM"]
]}

Inquiry: Would you mind telling me what TGI value was observed for `c1csc(-c2cc(-c3ccsc3)c(-c3cccs3)s2)c1` ?
Reply text: > 100 µM

Inquiry: Would you mind telling me what TGI value was observed for N#CC(C(=N/NC(N)=S)/C(=N\NC(N)=S)C(C#N)c1ccccc1)c1ccccc1 (stereo not given) ?
Reply text: > 10 µM

Data provenance is PubChem BioAssay (NCI).
